- Tested on: HDQ-P1
- assay_summary: normalised viability (% of control), CellTiter-Blue; higher = more viable cells (about 100 = DMSO control)
- condition_description: 3 nM; incubation time: 72 h
readout_kind: normalised viability
Mention the unit after the number when you answer.

Exercise: Read off the recorded normalised viability for COc1cc(CCc2cc(NC(=O)c3ccc(N4CC(C)NC(C)C4)cc3)n[nH]2)cc(OC)c1 (stereo unspecified) [AZD4547]
Solution: 120%

Exercise: Note down normalised viability recorded for O=C1c2c(O)ccc(O)c2C(=O)c2c(NCCNCCO)ccc(NCCNCCO)c21 [Mitoxantrone]
Solution: 86.7%

Exercise: Answer with the recorded normalised viability of O=C(CCBr)N1CCN(C(=O)CCBr)CC1 [Pipobroman] only.
Solution: 104%

Exercise: Give normalised viability for O=C(Nc1c[nH]nc1-c1nc2ccc(CN3CCOCC3)cc2[nH]1)NC1CC1 [AT9283]
Solution: 113%

Exercise: Dear colleague, please send me the reported normalised viability for O=S(=O)(c1cccc2cnccc12)N1CCCNCC1 [Fasudil] when you can.
Solution: 111%

Exercise: Give the measured normalised viability for CC[C@@]1(O)C(=O)OCc2c1cc1n(c2=O)Cc2cc3c(CN(C)C)c(O)ccc3nc2-1 [Topotecan]
Solution: 105%

Reference source: the supplement of paper PMC4862054
